Ref: paper PMC8101618

# TARGET SYSTEM: PTH1R (endogenous, Ocy454 cells) (Mus musculus)
# Construct: effects of distinct PTH1R ligands on endogenous receptors in Ocy454 cells; endogenous in cells; host or cells: Ocy454 cells (murine osteocyte-like line, subclone 6-9)
# Sequence (P41593 27-591): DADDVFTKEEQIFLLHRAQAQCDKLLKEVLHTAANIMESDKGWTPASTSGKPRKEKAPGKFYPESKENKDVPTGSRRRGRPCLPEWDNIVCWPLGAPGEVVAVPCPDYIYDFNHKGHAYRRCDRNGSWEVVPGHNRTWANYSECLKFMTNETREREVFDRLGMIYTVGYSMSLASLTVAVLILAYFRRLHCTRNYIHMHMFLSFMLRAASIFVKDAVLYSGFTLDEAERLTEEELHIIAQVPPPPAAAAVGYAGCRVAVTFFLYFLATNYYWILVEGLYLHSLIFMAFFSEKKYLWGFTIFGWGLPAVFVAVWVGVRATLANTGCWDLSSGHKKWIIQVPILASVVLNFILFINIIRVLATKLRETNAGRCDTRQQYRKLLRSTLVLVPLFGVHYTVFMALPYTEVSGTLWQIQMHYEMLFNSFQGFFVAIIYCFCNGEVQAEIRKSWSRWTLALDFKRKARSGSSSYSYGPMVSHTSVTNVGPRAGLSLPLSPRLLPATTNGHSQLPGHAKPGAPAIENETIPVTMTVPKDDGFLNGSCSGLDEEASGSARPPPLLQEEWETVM
# ASSAY METHOD TEXT: intracellular cAMP in Ocy454 cells
# Assay type: cell-based, murine
# SETUP CONDITIONS: IBMX (2mM), 30 min, room temperature, radioimmunoassay, repeated three times, Fig 3A, read-out: cAMP generation EC50
Where no end group is shown, it is not given here.
READOUT KIND: pEC50
// pEC50 is dimensionless: -log10 of concentration (M)

Query AVAEIQLMHQRAKWIQDARRRAFLHKLIAEIHTAEI [LA‐PTH] yields pEC50 of 9.25
